molecular target: purified human HDAC6 (Homo sapiens, UniProt Q9UBN7); construct: purchased BPS Bioscience 5006; experiment: HDAC6 Enzyme Assay; format: biochemical; conditions: purified human HDAC6, substrate Ac-Arg-Gly-Lys(Ac)-AMC, 1 hour at 30° C.; reported as bins
Sequence (Q9UBN7 whole entry): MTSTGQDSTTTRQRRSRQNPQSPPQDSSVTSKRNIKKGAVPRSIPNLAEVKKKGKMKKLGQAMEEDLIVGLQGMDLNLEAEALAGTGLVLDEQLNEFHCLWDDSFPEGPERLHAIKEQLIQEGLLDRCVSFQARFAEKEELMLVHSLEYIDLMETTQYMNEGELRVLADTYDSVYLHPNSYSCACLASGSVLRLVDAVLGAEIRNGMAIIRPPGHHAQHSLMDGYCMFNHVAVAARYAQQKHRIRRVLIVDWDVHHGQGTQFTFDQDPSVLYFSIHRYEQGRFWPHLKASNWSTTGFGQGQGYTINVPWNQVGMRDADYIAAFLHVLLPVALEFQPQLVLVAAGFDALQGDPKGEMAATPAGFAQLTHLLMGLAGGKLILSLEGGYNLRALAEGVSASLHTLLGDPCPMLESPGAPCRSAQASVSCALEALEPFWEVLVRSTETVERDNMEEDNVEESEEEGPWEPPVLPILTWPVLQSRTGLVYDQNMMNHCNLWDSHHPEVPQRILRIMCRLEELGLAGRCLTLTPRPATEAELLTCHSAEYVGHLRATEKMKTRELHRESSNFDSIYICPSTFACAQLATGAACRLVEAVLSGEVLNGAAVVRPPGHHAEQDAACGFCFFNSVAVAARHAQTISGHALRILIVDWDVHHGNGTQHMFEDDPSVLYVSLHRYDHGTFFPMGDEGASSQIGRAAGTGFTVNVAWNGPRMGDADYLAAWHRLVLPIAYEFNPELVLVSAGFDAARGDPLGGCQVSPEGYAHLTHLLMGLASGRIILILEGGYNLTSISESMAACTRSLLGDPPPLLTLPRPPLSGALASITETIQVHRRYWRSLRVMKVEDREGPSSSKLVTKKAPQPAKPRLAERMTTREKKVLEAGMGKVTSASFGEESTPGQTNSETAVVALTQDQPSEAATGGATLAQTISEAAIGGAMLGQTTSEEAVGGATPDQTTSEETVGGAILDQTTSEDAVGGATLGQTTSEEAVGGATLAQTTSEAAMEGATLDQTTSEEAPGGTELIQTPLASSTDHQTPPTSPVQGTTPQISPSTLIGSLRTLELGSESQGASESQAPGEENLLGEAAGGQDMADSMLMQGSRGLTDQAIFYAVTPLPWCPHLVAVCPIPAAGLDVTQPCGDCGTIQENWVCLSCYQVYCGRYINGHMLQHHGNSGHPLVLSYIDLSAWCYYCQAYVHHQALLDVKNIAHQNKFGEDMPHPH
measureName: IC50

Prompt: Dear colleague, please send me the reported IC50 for CC(NC(=O)c1cc2ccccc2o1)c1ccc(C(=O)NO)cc1 (stereo not shown) when you can.
Response: < 100 nM

Prompt: Tell me measured IC50 for CC(C)C(NC(=O)c1ccc(-c2ccccc2)cc1)c1ccc(C(=O)NO)cc1 (stereo not shown) please.
Response: < 100 nM

Prompt: Quickly give me recorded IC50 for CC(C)C(NC(=O)c1cc(F)c(F)cc1F)c1ccc(C(=O)NO)cc1 (stereo not shown)
Response: < 100 nM

Prompt: Give reported IC50 value for CC(C)C(NC(=O)C1(c2ccc(Cl)cc2)CC1)c1ccc(C(=O)NO)cc1 (stereo not shown)
Response: 100 to 500 nM

Prompt: Tell me measured IC50 for C[C@@H](NC(=O)Nc1cccc2ccccc12)c1ccc(C(=O)NO)cc1 please.
Response: < 100 nM

Prompt: In one line, give reported IC50 of the entry CC(NC(=O)C1CCC1)c1ccc(C(=O)NO)cc1 (stereo not shown) .
Response: 100 to 500 nM

Prompt: Return the recorded IC50 value; entry: O=C(NO)c1ccc([C@H](NC(=O)c2cc3ccccc3s2)C2CC2)cc1
Response: < 100 nM

Prompt: Entry CC(NC(=O)c1cn(C)c2ccccc12)c1cccc(C(=O)NO)c1 (stereo not shown) needs its IC50 filled in; supply it.
Response: 100 to 500 nM

Prompt: Answer with the recorded IC50 for the compound listed here: O=C(NO)c1ccc([C@H](NC(=O)c2cc3ccccc3o2)C(F)(F)F)cc1
Response: < 100 nM

Prompt: Supply recorded IC50 for CC(NC(=O)C1(c2ccccc2)CCCC1)c1ccc(C(=O)NO)cc1 (stereo not shown) here.
Response: 100 to 500 nM

Prompt: Report IC50, nothing else, for this compound: CC(C)[C@@H](Nc1nc(C(F)(F)F)cs1)c1ccc(C(=O)NO)cc1
Response: < 100 nM

Prompt: Tell me its IC50 given CC(NC(=O)C1(C)CCCCC1)c1ccc(C(=O)NO)cc1 (stereo not shown) as the entry.
Response: < 100 nM

Prompt: Complete the entry with IC50 for Cc1c(C(=O)NC(C)c2ccc(C(=O)NO)cc2)oc2ccccc12 (stereo not shown)
Response: < 100 nM

Prompt: Provide only the value of recorded IC50 for Cc1cccc(CNC(=O)NC(C)c2ccc(C(=O)NO)cc2)c1 (stereo not shown)
Response: 100 to 500 nM

Prompt: Give the value of IC50 reported for the following: CC(NC(=O)c1cc2ccccc2n1C)c1cccc(C(=O)NO)c1 (stereo not shown)
Response: 100 to 500 nM

Prompt: Give IC50 for the following compound: CC(C)[C@@H](NC(=O)c1cc2oc(-c3ccccc3)cc2n1C)c1ccc(C(=O)NO)cc1
Response: < 100 nM

Prompt: Identify measured IC50 corresponding to C[C@@H](NC(=O)c1cccn1C)c1ccc(C(=O)NO)cc1
Response: < 100 nM

Prompt: Please list IC50 recorded for the compound O=C(NO)c1ccc([C@H](NC(=O)c2ccc(-c3ccccc3)cc2)C(F)(F)F)cc1
Response: < 100 nM

Prompt: Return IC50 (reported value) for this compound: C[C@@H](NC(=O)C1(C)CCCCC1)c1ccc(C(=O)NO)cc1
Response: < 100 nM

Prompt: Please indicate IC50 recorded for CCC[C@@H](NC(=O)C12CC3CC(CC(C3)C1)C2)c1ccc(C(=O)NO)cc1
Response: < 100 nM

Prompt: Give the value of IC50 reported for the following: CC(NC(=O)Nc1ccc(F)cc1)c1ccc(C(=O)NO)cc1 (stereo not shown)
Response: < 100 nM

Prompt: Let me know recorded IC50 for CC(C)C(NC(=O)Cc1csc2ccc(Cl)cc12)c1ccc(C(=O)NO)cc1 (stereo not shown) , thanks.
Response: 100 to 500 nM

Prompt: Quickly give me recorded IC50 for Cc1cc(C(=O)NC(c2ccc(C(=O)NO)cc2)C(C)C)c(C)o1 (stereo not shown)
Response: 100 to 500 nM

Prompt: Give a short answer stating reported IC50 for O=C(NO)c1ccc([C@H](NC(=O)C23CC4CC(CC(C4)C2)C3)C2CC2)cc1 .
Response: 100 to 500 nM

Prompt: Quickly give me recorded IC50 for CC(NC(=O)c1ccc(-n2cccc2)cc1)c1ccc(C(=O)NO)cc1 (stereo not shown)
Response: < 100 nM

Prompt: // fetch IC50 given entry Cc1ccc(S(=O)(=O)NC(C)c2ccc(C(=O)NO)cc2)cc1 (stereo not shown)
Response: 100 to 500 nM

Prompt: Supply measured IC50 of CC(NC(=O)Nc1cc(C(F)(F)F)ccc1F)c1ccc(C(=O)NO)cc1 (stereo not shown) in your reply.
Response: < 100 nM

Prompt: Identify measured IC50 associated with CC(NC(=O)Nc1ccccc1-c1ccccc1)c1ccc(C(=O)NO)cc1 (stereo not shown)
Response: < 100 nM
